molecular target: Recombinant human TRKB (Homo sapiens (Human)); test: In vitro activity test on TRKB kinase (HTRF kinEASE TK); assay type: biochemical; conditions: 4.77 μM ATP, 50 min, room temperature

| compound | IC50 |
| --- | --- |
| Cc1cn(CC(F)F)nc1-c1cnc2[nH]nc(N3C[C@@H](F)C[C@@H]3c3cc(F)ccc3F)c2c1 | < 1 nM |
| O=C(O)c1cnc2[nH]nc(N3C[C@@H](F)C[C@@H]3c3cc(F)ccc3F)c2c1 | < 1 nM |
| O=C(c1n[nH]c2nccc(N[C@@H]3CCC[C@H]3O)c12)N1C[C@@H](F)C[C@@H]1c1cc(F)ccc1F | < 1 nM |
| NC(=O)c1cnc2[nH]nc(N3CCC[C@@H]3c3cc(F)ccc3F)c2c1 | < 10 nM |
| CC(C)(O)CNC(=O)c1cnc2[nH]nc(N3CCC[C@@H]3c3cc(F)ccc3F)c2c1 | < 10 nM |
| Fc1ccc(F)c([C@H]2C[C@H](F)CN2c2n[nH]c3ncc(-c4cnn(CC5CNC5)c4)cc23)c1 | < 1 nM |
| COCc1nnc(-c2cnc3c(c2)c(N2C[C@@H](F)C[C@@H]2c2cc(F)ccc2F)nn3COC)o1 | < 10 nM |
| CC1(O)CCN(c2cnc(C(=O)Nc3cnc4[nH]nc(N5C[C@@H](F)C[C@@H]5c5cc(F)ccc5F)c4c3)cn2)C1 (stereo partly drawn) | < 10 nM |
| Fc1ccc(F)c([C@H]2C[C@H](F)CN2c2n[nH]c3ncc(-c4cnn(COCc5ccccc5)c4)cc23)c1 | < 1 nM |
| Fc1ccc(F)c([C@H]2C[C@H](F)CN2c2n[nH]c3ncc(-c4cn[nH]c4)cc23)c1 | < 1 nM |
| CS(=O)(=O)n1cc(-c2cnc3[nH]nc(N4C[C@@H](F)C[C@@H]4c4cc(F)ccc4F)c3c2)cn1 | < 1 nM |
| O=C(NCCO)c1cnc2[nH]nc(N3CCC[C@@H]3c3cc(F)ccc3F)c2c1 | < 50 nM |
| COCCNC(=O)c1cnc2[nH]nc(N3CCC[C@@H]3c3cc(F)ccc3F)c2c1 | < 10 nM |
| CN1CC(n2cc(-c3cnc4[nH]nc(N5C[C@@H](F)C[C@@H]5c5cc(F)ccc5F)c4c3)cn2)C1 | < 1 nM |
| O=C(N[C@H]1CC[C@@H](O)CC1)c1cnc2[nH]nc(N3CCC[C@@H]3c3cc(F)ccc3F)c2c1 | < 10 nM |

###

molecular target: Recombinant human TRKA (Homo sapiens (Human), UniProt P04629); experiment: In vitro activity test on TRKA kinase (HTRF kinEASE TK); format: biochemical; settings: 14.68 μM ATP, 40 min, room temperature
Sequence (P04629 33-796): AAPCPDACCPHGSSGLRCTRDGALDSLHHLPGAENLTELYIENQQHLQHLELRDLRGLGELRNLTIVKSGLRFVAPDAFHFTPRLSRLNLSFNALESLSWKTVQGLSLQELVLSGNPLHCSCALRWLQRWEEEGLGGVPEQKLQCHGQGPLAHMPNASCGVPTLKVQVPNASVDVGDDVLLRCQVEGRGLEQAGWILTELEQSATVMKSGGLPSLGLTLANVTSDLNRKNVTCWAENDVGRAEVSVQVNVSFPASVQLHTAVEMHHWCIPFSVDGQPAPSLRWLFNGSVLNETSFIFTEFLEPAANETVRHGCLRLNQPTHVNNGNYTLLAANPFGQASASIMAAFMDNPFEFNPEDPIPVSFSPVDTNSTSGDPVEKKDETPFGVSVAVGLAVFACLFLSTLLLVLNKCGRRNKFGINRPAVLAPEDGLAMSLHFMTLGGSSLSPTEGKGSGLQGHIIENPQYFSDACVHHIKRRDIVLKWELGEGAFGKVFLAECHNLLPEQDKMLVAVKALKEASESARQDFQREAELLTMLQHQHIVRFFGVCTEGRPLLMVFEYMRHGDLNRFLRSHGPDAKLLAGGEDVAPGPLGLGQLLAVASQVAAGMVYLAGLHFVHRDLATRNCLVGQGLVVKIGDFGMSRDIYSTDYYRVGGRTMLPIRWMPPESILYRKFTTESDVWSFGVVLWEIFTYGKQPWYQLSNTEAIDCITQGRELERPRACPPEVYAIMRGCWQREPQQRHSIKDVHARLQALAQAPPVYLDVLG
Recorded IC50 by entry
measurementLabel: IC50

| smilesString | observed |
| --- | --- |
| COCCNC(=O)c1cnc2[nH]nc(N3CCC[C@@H]3c3cc(F)ccc3F)c2c1 | < 50 nM |
| Fc1ccc(F)c([C@H]2C[C@H](F)CN2c2n[nH]c3ncc(-c4cnn(C5CCOCC5)c4)cc23)c1 | < 1 nM |
| Fc1ccc(F)c([C@H]2C[C@H](F)CN2c2n[nH]c3ncc(-c4nnc(COC(F)(F)F)o4)cc23)c1 | < 1 nM |
| Fc1ccc(F)c([C@H]2C[C@H](F)CN2c2n[nH]c3ncc(-c4ccn(CC(F)F)n4)cc23)c1 | < 1 nM |
| COCc1nnc(-c2cnc3[nH]nc(N4C[C@@H](F)C[C@@H]4c4cc(F)ccc4F)c3c2)o1 | < 1 nM |
| NC(=O)c1cnc2[nH]nc(N3CCC[C@@H]3c3cc(F)ccc3F)c2c1 | < 10 nM |
| Fc1ccc(F)c([C@H]2C[C@H](F)CN2c2n[nH]c3ncc(-c4cnn(CC5CNC5)c4)cc23)c1 | < 1 nM |
| COCc1nnc(-c2cnc3c(c2)c(N2C[C@@H](F)C[C@@H]2c2cc(F)ccc2F)nn3COC)o1 | < 100 nM |
| Fc1ccc(F)c([C@H]2C[C@H](F)CN2c2n[nH]c3ncc(-c4cnn([C@@H]5CCNC5)c4)cc23)c1 | < 10 nM |
| CN1CC(n2cc(-c3cnc4[nH]nc(N5C[C@@H](F)C[C@@H]5c5cc(F)ccc5F)c4c3)cn2)C1 | < 1 nM |
| Cc1cn(CC(F)F)nc1-c1cnc2[nH]nc(N3C[C@@H](F)C[C@@H]3c3cc(F)ccc3F)c2c1 | < 1 nM |
| CC(C)(O)CNC(=O)c1cnc2[nH]nc(N3CCC[C@@H]3c3cc(F)ccc3F)c2c1 | < 50 nM |
| Fc1ccc(F)c([C@H]2C[C@H](F)CN2c2n[nH]c3ncc(-c4cn[nH]c4)cc23)c1 | < 1 nM |
| O=C(O)c1cnc2[nH]nc(N3C[C@@H](F)C[C@@H]3c3cc(F)ccc3F)c2c1 | < 1 nM |
| O=C(c1n[nH]c2nccc(N[C@@H]3CCC[C@H]3O)c12)N1C[C@@H](F)C[C@@H]1c1cc(F)ccc1F | < 1 nM |

###

biological target: Recombinant human TRKB (Homo sapiens (Human), UniProt Q16620); test: In vitro activity test on TRKB kinase (HTRF kinEASE TK); assay type: biochemical; settings: 4.77 μM ATP, 50 min, room temperature
Sequence (Q16620 32-822): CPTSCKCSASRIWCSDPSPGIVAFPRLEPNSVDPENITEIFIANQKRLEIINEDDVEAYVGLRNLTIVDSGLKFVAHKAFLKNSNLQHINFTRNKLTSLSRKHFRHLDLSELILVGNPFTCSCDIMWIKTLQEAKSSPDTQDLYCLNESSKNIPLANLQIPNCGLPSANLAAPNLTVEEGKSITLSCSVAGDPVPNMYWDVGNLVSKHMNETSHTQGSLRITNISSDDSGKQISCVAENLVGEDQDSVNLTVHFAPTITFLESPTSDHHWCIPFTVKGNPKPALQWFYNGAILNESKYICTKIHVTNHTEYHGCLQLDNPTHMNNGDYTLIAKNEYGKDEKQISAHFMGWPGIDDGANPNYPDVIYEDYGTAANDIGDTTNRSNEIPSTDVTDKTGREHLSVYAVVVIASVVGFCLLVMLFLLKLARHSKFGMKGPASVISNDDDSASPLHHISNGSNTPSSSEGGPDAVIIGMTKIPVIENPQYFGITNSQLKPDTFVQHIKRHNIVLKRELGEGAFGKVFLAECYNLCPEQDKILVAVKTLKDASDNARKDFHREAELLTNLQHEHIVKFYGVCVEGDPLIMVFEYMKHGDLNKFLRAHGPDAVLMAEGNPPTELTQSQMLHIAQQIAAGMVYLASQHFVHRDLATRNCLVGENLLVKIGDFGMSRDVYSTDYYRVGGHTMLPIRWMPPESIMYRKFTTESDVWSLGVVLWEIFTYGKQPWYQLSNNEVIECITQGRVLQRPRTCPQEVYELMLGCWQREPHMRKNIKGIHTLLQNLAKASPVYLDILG
Recorded IC50 by entry

| smilesString | IC50 |
| --- | --- |
| COC(=O)c1cnc2[nH]nc(N3C[C@@H](F)C[C@@H]3c3cc(F)ccc3F)c2c1 | < 1 nM |
| Fc1ccc(F)c([C@H]2C[C@H](F)CN2c2n[nH]c3ncc(-c4cnn([C@@H]5CCNC5)c4)cc23)c1 | < 500 nM |
| Fc1ccc(F)c([C@H]2C[C@H](F)CN2c2n[nH]c3ncc(-c4nnc(COC(F)(F)F)o4)cc23)c1 | < 1 nM |
| Fc1ccc(F)c([C@H]2C[C@H](F)CN2c2n[nH]c3ncc(-c4ccn(CC(F)F)n4)cc23)c1 | < 1 nM |
| CC(C)OC(=O)c1cnc2[nH]nc(N3C[C@@H](F)C[C@@H]3c3cc(F)ccc3F)c2c1 | < 1 nM |
| O=C(NCCCCO)c1cnc2[nH]nc(N3CCC[C@@H]3c3cc(F)ccc3F)c2c1 | < 50 nM |
| NC(=O)c1cnc2[nH]nc(N3C[C@@H](F)C[C@@H]3c3cc(F)ccc3F)c2c1 | < 10 nM |

###

target: Recombinant human TRKC (Homo sapiens (Human), UniProt Q16288); assay: In vitro activity test on TRKC kinase (HTRF kinEASE TK); format: biochemical; settings: 25.64 μM ATP, 40 min, room temperature
Sequence (Q16288 32-839): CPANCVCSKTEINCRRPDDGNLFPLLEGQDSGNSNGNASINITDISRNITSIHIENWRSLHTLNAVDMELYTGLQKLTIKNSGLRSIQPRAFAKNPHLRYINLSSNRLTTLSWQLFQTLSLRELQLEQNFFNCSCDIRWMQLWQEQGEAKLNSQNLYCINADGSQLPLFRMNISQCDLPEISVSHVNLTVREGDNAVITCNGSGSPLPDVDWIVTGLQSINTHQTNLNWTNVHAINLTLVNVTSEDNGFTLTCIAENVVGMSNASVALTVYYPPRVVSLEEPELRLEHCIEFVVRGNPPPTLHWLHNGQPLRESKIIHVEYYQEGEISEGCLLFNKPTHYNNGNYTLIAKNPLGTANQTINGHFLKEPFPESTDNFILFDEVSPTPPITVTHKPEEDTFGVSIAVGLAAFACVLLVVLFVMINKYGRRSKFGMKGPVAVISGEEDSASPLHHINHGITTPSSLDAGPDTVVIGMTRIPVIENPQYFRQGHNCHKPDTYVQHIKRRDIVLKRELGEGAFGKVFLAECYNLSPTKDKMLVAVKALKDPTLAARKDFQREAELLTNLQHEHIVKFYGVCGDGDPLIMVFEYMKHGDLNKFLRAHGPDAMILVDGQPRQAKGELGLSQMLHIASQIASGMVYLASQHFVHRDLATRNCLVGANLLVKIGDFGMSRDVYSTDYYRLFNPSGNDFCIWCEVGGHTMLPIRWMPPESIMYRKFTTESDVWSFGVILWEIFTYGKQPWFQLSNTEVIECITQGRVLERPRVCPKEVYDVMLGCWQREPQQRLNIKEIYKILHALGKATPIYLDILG

| compound | IC50 |
| --- | --- |
| O=C1CC(n2cc(-c3cnc4[nH]nc(N5C[C@@H](F)C[C@@H]5c5cc(F)ccc5F)c4c3)cn2)CCN1 (stereo partly shown) [Example 23] | < 10 nM |
| Fc1ccc(F)c([C@H]2C[C@H](F)CN2c2n[nH]c3ncc(-c4cnn([C@H]5CCNC5)c4)cc23)c1 [Example 25] | < 1 nM |
| O=C(Nc1cnc2[nH]nc(N3CCC[C@@H]3c3cc(F)ccc3F)c2c1)N1CC[C@H](O)C1 [Example 2] | < 500 nM |
| Fc1ccc(F)c([C@H]2C[C@H](F)CN2c2n[nH]c3ncc(-c4ccn(CC(F)F)n4)cc23)c1 [Example 36] | < 1 nM |

###

Recorded pIC50 by entry
tested on: KM12-LUC cells; experiment: KM12-LUC cell proliferation experiment (CellTiter-Glo); format: cell-based; conditions: human colon cancer cell line with TPM3-NTRK1 fusion, 72 hours
pIC50: −log10 of the molar value.
measurementLabel: pIC50

| smilesString | experimentalSystem | observed |
| --- | --- | --- |
| NC(=O)c1cnc2[nH]nc(N3C[C@@H](F)C[C@@H]3c3cc(F)ccc3F)c2c1 | KM12-LUC cells | > 8.00 |
| CC(C)(O)Cn1cc(-c2cnc3[nH]nc(N4C[C@@H](F)C[C@@H]4c4cc(F)ccc4F)c3c2)cn1 | KM12-LUC cells | > 9.00 |
| Fc1ccc(F)c([C@H]2C[C@H](F)CN2c2n[nH]c3ncc(-c4cnn(CC(F)(F)F)c4)cc23)c1 | KM12-LUC cells | > 8.00 |
| Fc1ccc(F)c([C@H]2C[C@H](F)CN2c2n[nH]c3ncc(-c4cnn([C@@H]5CCNC5)c4)cc23)c1 | KM12-LUC cells | > 8.00 |
| Fc1ccc(F)c([C@H]2C[C@H](F)CN2c2n[nH]c3ncc(-c4cn[nH]c4)cc23)c1 | KM12-LUC cells | > 8.00 |
| Fc1ccc(F)c([C@H]2C[C@H](F)CN2c2n[nH]c3ncc(-c4cnn(C5CCNCC5)c4)cc23)c1 | KM12-LUC cells | > 8.00 |
| CN1CC(n2cc(-c3cnc4[nH]nc(N5C[C@@H](F)C[C@@H]5c5cc(F)ccc5F)c4c3)cn2)C1 | KM12-LUC cells | > 8.00 |
| Fc1ccc(F)c([C@H]2C[C@H](F)CN2c2n[nH]c3ncc(-c4cnn([C@H]5CCNC5)c4)cc23)c1 | KM12-LUC cells | > 8.00 |
| CN(C)CCn1cc(-c2cnc3[nH]nc(N4C[C@@H](F)C[C@@H]4c4cc(F)ccc4F)c3c2)cn1 | KM12-LUC cells | > 9.00 |
| Fc1ccc(F)c([C@H]2C[C@H](F)CN2c2n[nH]c3ncc(-c4cnn(CC(F)F)c4)cc23)c1 | KM12-LUC cells | > 8.00 |
| Fc1ccc(F)c([C@H]2C[C@H](F)CN2c2n[nH]c3ncc(-c4ccn(CC(F)F)n4)cc23)c1 | KM12-LUC cells | > 8.00 |
| COCc1nnc(-c2cnc3[nH]nc(N4C[C@@H](F)C[C@@H]4c4cc(F)ccc4F)c3c2)o1 | KM12-LUC cells | > 8.00 |

The origin of these recorded values is patent US12391687B2.
